Target: Neurogenic locus notch homolog protein 2 (Homo sapiens)
Assay: small molecules binding Notch2 protein – biochemical, small-molecule microarray, 635 nm fluorescence, stem cell growth factors, primary screen (AID 1073)
Conditions: higher = more signal
Give measured composite z-score for each item. Keep answers brief.
Answers are plain numbers.

CCCc1cc2c(n1Cc1ccc(OC)cc1)C(C)C1CN(C(=O)c3ccccc3)C(C)(C(=O)OC)C21 (centres undefined): 1.59

Report composite z-score for every entry below.
1. CN(C)C(=O)[C@@]1(CCC(=O)OC(C)(C)C)N=C(c2ccc(OCCCO)cc2)O[C@H]1c1ccccc1N=[N+]=[N-]
2. COCCOC(=O)N1C(=O)[C@@]2(c3cc(C#CC4(O)CCCCCC4)ccc31)[C@H](C(=O)NC[C@H](O)c1ccccc1)[C@H]1C(=O)O[C@H](c3ccccc3)[C@H](c3ccccc3)N1[C@@H]2c1ccc(OCCO)cc1
3. Cc1ccc(S[C@]2(C(=O)O)CC(=O)N(Cc3ccccc3C(F)(F)F)[C@@H]2c2ccc(CO)cc2)cc1

1.2
0.672
-1.11

====

Biological target: Neurogenic locus notch homolog protein 3 (Homo sapiens) (UniProt Q9UM47)
Sequence (Q9UM47 whole entry, looked up): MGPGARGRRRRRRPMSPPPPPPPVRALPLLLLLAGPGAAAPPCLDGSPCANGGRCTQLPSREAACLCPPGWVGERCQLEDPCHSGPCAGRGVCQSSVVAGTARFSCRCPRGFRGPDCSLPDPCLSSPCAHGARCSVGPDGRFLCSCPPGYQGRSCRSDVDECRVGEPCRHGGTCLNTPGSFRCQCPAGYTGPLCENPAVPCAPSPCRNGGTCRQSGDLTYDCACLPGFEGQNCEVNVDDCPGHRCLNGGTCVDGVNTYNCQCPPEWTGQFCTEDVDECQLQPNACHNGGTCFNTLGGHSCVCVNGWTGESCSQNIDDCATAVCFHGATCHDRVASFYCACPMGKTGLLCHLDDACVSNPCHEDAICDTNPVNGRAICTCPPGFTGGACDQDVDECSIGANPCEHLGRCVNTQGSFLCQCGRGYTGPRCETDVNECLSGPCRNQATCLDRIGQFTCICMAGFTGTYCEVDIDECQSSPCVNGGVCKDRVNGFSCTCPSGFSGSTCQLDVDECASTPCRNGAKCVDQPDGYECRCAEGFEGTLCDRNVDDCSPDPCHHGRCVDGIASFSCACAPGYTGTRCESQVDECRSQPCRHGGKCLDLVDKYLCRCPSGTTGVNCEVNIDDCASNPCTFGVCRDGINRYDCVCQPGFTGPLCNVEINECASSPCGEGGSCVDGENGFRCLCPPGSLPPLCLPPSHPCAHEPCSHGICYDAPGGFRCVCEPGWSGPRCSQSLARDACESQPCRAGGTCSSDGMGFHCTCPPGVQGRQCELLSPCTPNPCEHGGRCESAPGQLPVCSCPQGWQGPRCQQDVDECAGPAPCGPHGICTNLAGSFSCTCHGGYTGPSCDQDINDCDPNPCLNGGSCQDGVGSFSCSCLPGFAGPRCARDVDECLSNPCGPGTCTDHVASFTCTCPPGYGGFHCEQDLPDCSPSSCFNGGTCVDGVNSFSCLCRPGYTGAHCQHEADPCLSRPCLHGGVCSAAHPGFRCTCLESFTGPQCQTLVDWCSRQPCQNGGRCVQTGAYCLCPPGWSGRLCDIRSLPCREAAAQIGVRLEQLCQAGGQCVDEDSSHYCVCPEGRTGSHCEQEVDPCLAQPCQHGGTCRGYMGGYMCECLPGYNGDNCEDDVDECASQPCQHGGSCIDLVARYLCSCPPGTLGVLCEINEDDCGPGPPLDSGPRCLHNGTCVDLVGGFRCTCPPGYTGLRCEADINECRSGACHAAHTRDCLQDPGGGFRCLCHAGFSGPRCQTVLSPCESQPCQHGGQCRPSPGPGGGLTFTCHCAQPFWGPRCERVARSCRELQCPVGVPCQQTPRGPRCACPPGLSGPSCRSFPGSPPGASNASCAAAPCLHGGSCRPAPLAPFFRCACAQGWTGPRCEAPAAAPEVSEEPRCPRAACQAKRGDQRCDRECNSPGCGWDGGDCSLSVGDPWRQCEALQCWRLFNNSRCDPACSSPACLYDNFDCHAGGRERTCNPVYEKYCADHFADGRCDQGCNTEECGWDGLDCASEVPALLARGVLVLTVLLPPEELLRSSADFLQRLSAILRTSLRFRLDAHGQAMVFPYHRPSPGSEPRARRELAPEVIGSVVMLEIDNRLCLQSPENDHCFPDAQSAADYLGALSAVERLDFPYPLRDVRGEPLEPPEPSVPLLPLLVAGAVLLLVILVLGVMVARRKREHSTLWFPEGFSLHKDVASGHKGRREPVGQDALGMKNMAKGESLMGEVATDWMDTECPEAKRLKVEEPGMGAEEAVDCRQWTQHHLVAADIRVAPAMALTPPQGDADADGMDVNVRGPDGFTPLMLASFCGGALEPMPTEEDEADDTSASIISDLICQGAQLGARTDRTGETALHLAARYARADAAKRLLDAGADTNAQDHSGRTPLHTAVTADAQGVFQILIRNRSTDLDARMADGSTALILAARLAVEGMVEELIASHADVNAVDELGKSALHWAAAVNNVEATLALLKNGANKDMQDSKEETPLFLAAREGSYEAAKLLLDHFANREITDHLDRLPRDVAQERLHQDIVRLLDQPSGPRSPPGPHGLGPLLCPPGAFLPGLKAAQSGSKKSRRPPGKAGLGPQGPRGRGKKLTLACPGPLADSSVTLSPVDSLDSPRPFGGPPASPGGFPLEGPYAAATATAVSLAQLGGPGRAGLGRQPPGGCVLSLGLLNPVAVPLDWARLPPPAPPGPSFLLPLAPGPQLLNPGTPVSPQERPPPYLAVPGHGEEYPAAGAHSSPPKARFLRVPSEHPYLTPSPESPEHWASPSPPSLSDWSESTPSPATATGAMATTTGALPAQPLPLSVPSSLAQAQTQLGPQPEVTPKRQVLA
Assay: small molecules binding NOTCH3 protein – biochemical, 635/667 nm fluorescence, primary screen (AID 1096)
Settings: small-molecule microarray, 635 nm fluorescence, higher = more signal
Label scheme for composite z-score: lower than 0.2 is 0.0, 0.2 and above is 1.0.

Take a look at these entries with their results.
C[N+](C)(C)CCCCCCNC(=O)[C@@H]1C[C@@H]2C(=O)NCC(=O)N2[C@@H]1c1ccc(O)cc1: 1.0
[N-]=[N+]=NCc1ccccc1C[C@@]1(C(=O)NCCN2CCOCC2)N=C(c2ccc(OCCCO)cc2)O[C@@H]1c1ccccc1CN=[N+]=[N-]: 1.0
OCCCC1=CC(c2cccs2)N(Cc2cccc(OC(F)(F)F)c2)CC1 (configuration not stated): 0.0

Check if composite z-score >= 0.2 (inclusive). Item: CN(C)C(=O)[C@@]1(Cc2ccccc2N=[N+]=[N-])N=C(c2ccc(OCCCO)cc2)O[C@H]1c1ccccc1N=[N+]=[N-]
1.0

Check if composite z-score >= 0.2 (inclusive). Item: CCN(CC)c1ccc(N2CC=CC34O[C@@H]5/C=C\CCCOC(=O)C5[C@H]3C(=O)N(CCCCCCO)[C@@H]4C2=O)cc1 (some centres not stated)
0.0

Check if composite z-score >= 0.2 (inclusive). Item: CC(C)C[C@H]1NC(=O)[C@H](C)NC(=O)[C@@]23C(=O)N[C@@H](Cc4ccccc4)C2[C@H](C)[C@@]2(C)O[C@H]2C3/C=C/C/C=C\CNC1=O (some centres not stated)
0.0

====

Target: Pro-neuregulin-1, membrane-bound isoform (Homo sapiens) (UniProt Q02297)
Sequence (Q02297 whole entry, looked up, canonical isoform): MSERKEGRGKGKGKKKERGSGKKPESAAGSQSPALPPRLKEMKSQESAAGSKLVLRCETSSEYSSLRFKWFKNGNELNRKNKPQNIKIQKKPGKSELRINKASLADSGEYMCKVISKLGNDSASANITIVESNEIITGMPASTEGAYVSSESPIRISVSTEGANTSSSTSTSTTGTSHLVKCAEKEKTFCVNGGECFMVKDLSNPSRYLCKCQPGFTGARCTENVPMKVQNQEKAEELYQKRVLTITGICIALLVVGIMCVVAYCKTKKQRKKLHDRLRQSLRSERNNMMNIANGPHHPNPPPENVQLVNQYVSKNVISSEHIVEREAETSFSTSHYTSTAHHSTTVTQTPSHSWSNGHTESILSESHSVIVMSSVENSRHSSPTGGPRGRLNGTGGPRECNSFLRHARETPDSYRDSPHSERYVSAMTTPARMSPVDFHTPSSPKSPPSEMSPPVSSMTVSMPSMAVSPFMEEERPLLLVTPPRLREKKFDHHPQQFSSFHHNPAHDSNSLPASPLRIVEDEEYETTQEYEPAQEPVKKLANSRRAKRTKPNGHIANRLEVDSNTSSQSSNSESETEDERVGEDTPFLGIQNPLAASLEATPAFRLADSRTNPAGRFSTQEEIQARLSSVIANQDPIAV
Test: small molecules binding neuregulin-1 protein – biochemical, small-molecule microarray, fluorescence 635/667, psychiatric disease protein project, primary screen (AID 1075);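 further: score combines 667 nm spot fluorescence with signal to noise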
Conditions: NRG1 binding, 635 nm fluorescence, higher = more signal
Give measured composite z-score for each item. Keep answers brief.
One number for each entry.

// below: answered molecules
COc1ccc(C#Cc2ccc3c(c2)[C@]2(C(=O)N3)[C@H](C(N)=O)[C@H]3C(=O)O[C@H](c4ccccc4)[C@H](c4ccccc4)N3[C@@H]2c2ccc(O)cc2)cc1: 1.57
CCCC[C@@H](O)C1=C(COc2ccccc2)Cn2c(=O)n(-c3ccccc3)c(=O)n2[C@H]1CO: -0.21
CN(C)C(=O)[C@@]1(CCS(=O)(=O)c2ccccc2)N=C(c2ccc(OCCCO)cc2)O[C@H]1c1ccccc1CN=[N+]=[N-]: 1.63

Report composite z-score for every entry below.
1. CC(C)C[C@@H]1NC(=O)[C@@H]2C[C@H](C(=O)NCCCC[N+](C)(C)C)[C@H](c3cccc(OCCO)c3)N2C1=O
2. CCOc1cc(C(O)C2C=CC3C(=O)NC(=O)C3N2Nc2ccccn2)ccc1O (configuration not stated)
3. CCCCC(=C=CC[C@H](O)c1cccc(OCCO)c1)C[C@H](O)COCc1ccccc1
4. COC(=O)[C@@]1(Cc2ccc(F)cc2)[C@H]2c3cc(C(=O)N4CCCC4)n(Cc4ccccc4)c3C[C@H]2CN1C(=O)c1ccccc1

1.05
0.18
-0.491
1.83
